Could you please report measured normalised viability for the items listed next?
Test system: CAL-148
assay.comment: normalised viability (% of control), CellTiter-Blue; higher = more viable cells (about 100 = DMSO control)
assay.context: incubation time: 72 h
One number for each entry, in %.

Illustrative cases are given below, each with its answer.
Complete the entry with normalised viability for COc1cc([C@@H]2c3cc4c(cc3[C@@H](O[C@@H]3O[C@@H]5CO[C@@H](C)O[C@H]5[C@H](O)[C@H]3O)[C@H]3COC(=O)[C@H]23)OCO4)cc(OC)c1O [Etoposide] (1000 nM) 63.4

Complete the entry with normalised viability for CC1(C)NC(=O)N(c2ccc([N+](=O)[O-])c(C(F)(F)F)c2)C1=O [Nilutamide] (1000 nM) 108

Complete the entry with normalised viability for Clc1ccc(Nc2nnc(Cc3ccncc3)c3ccccc23)cc1 [Vatalanib] (1000 nM) 83.4

List normalised viability for every entry below, keeping the order given.
1. C=C(c1ccc(C(=O)O)cc1)c1cc2c(cc1C)C(C)(C)CCC2(C)C [Bexarotene] (1000 nM)
2. CCC1(c2ccc(N)cc2)CCC(=O)NC1=O (stereo not given) [Aminoglutethimide] (1000 nM)

1: 96.6; 2: 113

====

System: CAL-51
assay.comment: normalised viability (% of control), CellTiter-Blue; higher = more viable cells (about 100 = DMSO control)
assay.context: 0.3 nM; incubation time: 72 h
Could you please report measured normalised viability for the items listed next?
Give bare numbers, in %.

Complete the entry with normalised viability for NC(=O)Nc1cc(-c2cccc(F)c2)sc1C(=O)N[C@H]1CCCNC1 101

Complete the entry with normalised viability for Cc1ccc(C(=O)N(CCCN)[C@@H](c2oc3cc(Cl)ccc3c(=O)c2Cc2ccccc2)C(C)C)cc1 106

List normalised viability for every entry below, keeping the order given.
1. CO[C@H]1/C=C\C=C(/C)C(=O)NC2=CC(=O)C(NCCN(C)C)=C(C[C@@H](C)C[C@H](OC)[C@H](O)[C@@H](C)/C=C(\C)[C@@H]1OC(N)=O)C2=O
2. CC(=O)Nc1ccc(C(=O)Nc2ccccc2N)cc1

97
94.6

====

Tested on: DU-4475
assay.comment: drug sensitivity score (DSS), CellTiter-Blue viability (DSS (AUC-based score)); higher = stronger viability inhibition; extreme values may be limits of the assay
assay.context: incubation time: 72 h
quantity.measured: drug sensitivity score
One number for each entry.

List drug sensitivity score for every entry below, keeping the order given.
1. C[C@@H](Oc1cc(-c2cnn(C3CCNCC3)c2)cnc1N)c1c(Cl)ccc(F)c1Cl [Crizotinib]
2. CN(C)/N=N/c1[nH]cnc1C(N)=O [Dacarbazine]
3. C=C(c1ccc(C(=O)O)cc1)c1cc2c(cc1C)C(C)(C)CCC2(C)C [Bexarotene]

1. 3.43
2. 0
3. 0

List drug sensitivity score for every entry below, keeping the order given.
1. Cc1ccc(-n2nc(C(C)(C)C)cc2NC(=O)Nc2ccc(OCCN3CCOCC3)c3ccccc23)cc1 [Doramapimod]
2. COc1cc2nccc(Oc3ccc(NC(=O)C4(C(=O)Nc5ccc(F)cc5)CC4)cc3)c2cc1OC [Cabozantinib]
3. CN(N=O)C(=O)N[C@@H](C=O)[C@@H](O)[C@H](O)[C@H](O)CO [Streptozocin]
4. CC(C)Cn1cnc2c(N)nc3ccccc3c21 [Imiquimod]
5. Clc1ccc(Nc2nnc(Cc3ccncc3)c3ccccc23)cc1 [Vatalanib]
6. NCC(=O)CCC(=O)O [Aminolevulinic acid]
7. Cn1c(Nc2ccc(C(F)(F)F)cc2)nc2cc(Oc3ccnc(-c4ncc(C(F)(F)F)[nH]4)c3)ccc21 [RAF265]

[0, 0, 0, 0, 0, 0, 3.23]

Complete the entry with drug sensitivity score for C[C@]12CC[C@@H]3c4ccc(O)cc4C[C@@H](CCCCCCCCC[S+]([O-])CCCC(F)(F)C(F)(F)F)[C@H]3[C@@H]1CC[C@@H]2O (stereo partly specified) [Fulvestrant] 0

====

Could you please report measured normalised response for the items listed next?
Tested on: HCC1599
assay.comment: normalised response (% of control), CellTiter-Glo; higher = more viable cells (100 = DMSO, 0 = benzethonium chloride kill control)
assay.context: incubation time: 72 h
Give bare numbers, in %.

List normalised response for every entry below, keeping the order given.
1. CC1(C)NC(=O)N(c2ccc([N+](=O)[O-])c(C(F)(F)F)c2)C1=O [Nilutamide] (1 nM)
2. CC(=O)Nc1ccc(C(=O)Nc2ccccc2N)cc1 [Tacedinaline] (100 nM)
3. CN[C@@H]1C[C@H]2O[C@@](C)([C@@H]1OC)n1c3ccccc3c3c4c(c5c6ccccc6n2c5c31)C(=O)N[C@H]4O [UCN-01] (1000 nM)
4. C[C@@H](Oc1cc(-c2cnn(C3CCNCC3)c2)cnc1N)c1c(Cl)ccc(F)c1Cl [Crizotinib] (1 nM)
5. CCC1(c2ccc(N)cc2)CCC(=O)NC1=O (stereo unspecified) [Aminoglutethimide] (1 nM)
6. CC1(C)NC(=O)N(c2ccc([N+](=O)[O-])c(C(F)(F)F)c2)C1=O [Nilutamide] (10 nM)
7. O=C(O)c1ccc(-c2c[nH]c3ncc(-c4ccccc4)cc23)cc1C1CCCC1 (1 nM)
8. CC1(C)NC(=O)N(c2ccc([N+](=O)[O-])c(C(F)(F)F)c2)C1=O [Nilutamide] (1000 nM)

109
126
8.97
106
91.7
113
83.8
110

List normalised response for every entry below, keeping the order given.
1. CCCCCCCCCCCCCCCCCCOP(=O)([O-])OC1CC[N+](C)(C)CC1 [Perifosine] (250 nM)
2. CS(=O)(=O)c1ccc(C2=C(c3ccccc3)C(=O)OC2)cc1 [Rofecoxib] (1 nM)
3. CS(=O)(=O)c1ccc(C2=C(c3ccccc3)C(=O)OC2)cc1 [Rofecoxib] (1000 nM)
4. COc1cc2nccc(Oc3ccc(NC(=O)C4(C(=O)Nc5ccc(F)cc5)CC4)cc3)c2cc1OC [Cabozantinib] (100 nM)
5. C[C@]12CC[C@@H]3c4ccc(O)cc4C[C@@H](CCCCCCCCC[S+]([O-])CCCC(F)(F)C(F)(F)F)[C@H]3[C@@H]1CC[C@@H]2O (stereo partly specified) [Fulvestrant] (0.1 nM)
6. N.N.[Cl][Pt][Cl] [Cisplatin] (100 nM)

[101, 99.1, 118, 117, 93.4, 98.7]

List normalised response for every entry below, keeping the order given.
1. N[C@@H](CSC(c1ccccc1)(c1ccccc1)c1ccccc1)C(=O)O [S-trityl-L-cysteine] (4000 nM)
2. C[C@]12CC[C@@H]3c4ccc(O)cc4C[C@@H](CCCCCCCCC[S+]([O-])CCCC(F)(F)C(F)(F)F)[C@H]3[C@@H]1CC[C@@H]2O (stereo partly specified) [Fulvestrant] (1 nM)

1. 109
2. 90.3

====

Could you please report measured normalised viability for the items listed next?
Tested on: SK-BR-3
assay.comment: normalised viability (% of control), CellTiter-Blue; higher = more viable cells (about 100 = DMSO control)
assay.context: 1000 nM; incubation time: 72 h
Numbers only, in %.

Complete the entry with normalised viability for CN(C)/N=N/c1[nH]cnc1C(N)=O [Dacarbazine] 95.3

Complete the entry with normalised viability for C#Cc1cccc(Nc2ncnc3cc(OCCOC)c(OCCOC)cc23)c1 [Erlotinib] 91.2

Complete the entry with normalised viability for COc1cc2nccc(Oc3ccc(NC(=O)C4(C(=O)Nc5ccc(F)cc5)CC4)cc3)c2cc1OC [Cabozantinib] 109

Complete the entry with normalised viability for N.N.[Cl][Pt][Cl] [Cisplatin] 105

Complete the entry with normalised viability for O=C1CCC(N2C(=O)c3ccccc3C2=O)C(=O)N1 (stereo unspecified) [Thalidomide] 112

In the following, a different molecule is considered.
Complete the entry with normalised viability for CCC1=C[C@@H]2CN(C1)Cc1c([nH]c3ccccc13)[C@@](C(=O)OC)(c1cc3c(cc1OC)N(C)[C@H]1[C@@](O)(C(=O)OC)[C@H](OC(C)=O)[C@]4(CC)C=CCN5CC[C@]31[C@@H]54)C2 [Vinorelbine] 17.7

====

Tested on: MFM-223
assay.comment: drug sensitivity score (DSS), CellTiter-Glo (DSS (AUC-based score)); higher = stronger drug effect (viability inhibition or cytotoxicity); extreme values may be limits of the assay
assay.context: incubation time: 72 h
quantity.measured: drug sensitivity score

Illustrative cases are given below, each with its answer.
Answer with drug sensitivity score of O=P1(NCCCl)OCCCN1CCCl (stereo unspecified) [Ifosfamide] measured for MFM-223. 0

Answer with drug sensitivity score of CCC1=C[C@@H]2CN(C1)Cc1c([nH]c3ccccc13)[C@@](C(=O)OC)(c1cc3c(cc1OC)N(C)[C@H]1[C@@](O)(C(=O)OC)[C@H](OC(C)=O)[C@]4(CC)C=CCN5CC[C@]31[C@@H]54)C2 [Vinorelbine] measured for MFM-223. 16

Answer with drug sensitivity score of N.N.[Cl][Pt][Cl] [Cisplatin] measured for MFM-223. 0

Answer with drug sensitivity score of CC(C)Cn1cnc2c(N)nc3ccccc3c21 [Imiquimod] measured for MFM-223. 0

Answer with drug sensitivity score of C#Cc1cccc(Nc2ncnc3cc(OCCOC)c(OCCOC)cc23)c1 [Erlotinib] measured for MFM-223. 0

Answer with drug sensitivity score of CN[C@@H]1C[C@H]2O[C@@](C)([C@@H]1OC)n1c3ccccc3c3c4c(c5c6ccccc6n2c5c31)C(=O)N[C@H]4O [UCN-01] measured for MFM-223. 16.6

Answer with drug sensitivity score of CS(=O)(=O)c1ccc(C2=C(c3ccccc3)C(=O)OC2)cc1 [Rofecoxib] measured for MFM-223. 0

Answer with drug sensitivity score of NC(=O)Nc1cc(-c2cccc(F)c2)sc1C(=O)N[C@H]1CCCNC1 [AZD7762] measured for MFM-223. 0

List drug sensitivity score for every entry below, keeping the order given.
1. O=C(CCCCCCC(=O)Nc1ccc([C@H]2O[C@@H](CSc3nc(-c4ccccc4)c(-c4ccccc4)o3)C[C@@H](c3ccc(CO)cc3)O2)cc1)NO [Tubacin]
2. N[C@@H](CSC(c1ccccc1)(c1ccccc1)c1ccccc1)C(=O)O [S-trityl-L-cysteine]
3. CC(=O)Nc1ccc(C(=O)Nc2ccccc2N)cc1 [Tacedinaline]

1. 4.83
2. 0
3. 0
